Entry source: the supplement of paper PMC10567573

B1: RPS21 (parent)
chain: AEVSWEPGRREGCDICAGKAGCPI

variants of: B1; experiment: protein stability index of a GFP-peptide fusion (GPS, HEK-293T) (PSI 1-6); higher = more stable; conditions: c terminus: a fixed tail appended;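 further: lentivirally expressed fusions sorted by FACS into six bins by GFP to DsRed ratio, PSI derived from sequencing read proportions per bin multiplied by bin number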
Given measured protein stability index, output yes (1) if it is greater than or equal to 3 and no (0) if not.

[
  {
    "mutation_key": "A1G",
    "assigned_class": "yes (1)"
  }
]

Request: Please indicate if the recorded protein stability index for `C13M` meets or exceeds 3.
Result: yes (1)

Request: Tell me whether protein stability index is at least 3 here: `G12D`
Result: yes (1)

Request: Form field: protein stability index at least 3? Entry: `I15Q`
Result: yes (1)
